Observed Viability Prediction for WA09 hES cells, reported per entry below.

// worked examples, Viability Prediction included
CS(=O)(=O)OCCCCOS(C)(=O)=O = TER
O=C1CCC(N2C(=O)c3ccccc3C2=O)C(=O)N1 (centres unmarked) [Thalidomide] = NON
N[C@@H](CC(=O)N1CCn2c(nnc2C(F)(F)F)C1)Cc1cc(F)c(F)cc1F = NON
Nc1nc2ncc(CNc3ccc(C(=O)N[C@@H](CCC(=O)O)C(=O)O)cc3)nc2c(=O)[nH]1 = NON

// query Hi! What's the reported Viability Prediction for N[C@@H](Cc1cc(I)c(Oc2cc(I)c(O)c(I)c2)c(I)c1)C(=O)O on WA09 hES cells?
// result NON
